biological target: Nitroreductase domain-containing protein (Phocaeicola dorei); experiment: The drug is tested on Bacteroides dorei strain: DSM17855 for biotransformation. The drug concentrations were measured before and after a 12-h incubation by liquid-chromatography-coupled mass spectrometry (LC–MS); assay type: ADME; set-up: dose 2 uM; details: 2 µM
Sequence (B6W3P3 whole entry, the tested form may be a part): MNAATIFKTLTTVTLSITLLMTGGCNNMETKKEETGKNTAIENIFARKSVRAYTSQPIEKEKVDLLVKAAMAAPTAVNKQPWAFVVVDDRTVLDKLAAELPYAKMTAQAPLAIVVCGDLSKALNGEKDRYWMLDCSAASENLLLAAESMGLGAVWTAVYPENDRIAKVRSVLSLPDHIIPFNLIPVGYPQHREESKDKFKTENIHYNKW
Assay readout: Bacterial Biotransformation

1) CCN(CC)C(=O)/C(C#N)=C/c1cc(O)c(O)c([N+](=O)[O-])c1	Compound NOT metabolized
2) CC(=O)OCC(=O)NCCCOc1cccc(CN2CCCCC2)c1 [ROXATIDINE ACETATE]	Compound NOT metabolized
3) O=C(O)c1cc(/N=N/c2ccc(S(=O)(=O)Nc3ccccn3)cc2)ccc1O	Compound NOT metabolized
4) CC(=O)OCC(=O)[C@@]1(OC(C)=O)[C@@H](C)C[C@H]2[C@@H]3C[C@H](F)C4=CC(=O)C=C[C@]4(C)[C@@]3(F)[C@@H](O)C[C@@]21C [DIFLORASONE DIACETATE]	Compound NOT metabolized

---

test: The drug is tested on Parabacteroides merdae strain: ATCC43184 for biotransformation. The drug concentrations were measured before and after a 12-h incubation by liquid-chromatography-coupled mass spectrometry (LC–MS); conditions: 2 µM
Assay readout: Bacterial Biotransformation

Here is how some compounds turned out for Bacterial Biotransformation.
1) Cc1ccnc2c1NC(=O)c1cccnc1N2C1CC1	Compound NOT metabolized
2) Cc1ccc(/C(=C\CN2CCCC2)c2ccccn2)cc1	Compound NOT metabolized
3) CC(C(=O)O)c1ccc2c(c1)Cc1cccnc1O2 (stereo not drawn)	Compound metabolized
4) COc1ccccc1N1CCN(CC(O)COc2cccc3ccccc23)CC1 (stereo not drawn)	Compound NOT metabolized
5) Cc1nc(Nc2ncc(C(=O)Nc3c(C)cccc3Cl)s2)cc(N2CCN(CCO)CC2)n1.O	Compound NOT metabolized

Given CCOC(=O)[C@H](CCc1ccccc1)N[C@@H](C)C(=O)N1[C@H](C(=O)O)C[C@H]2CCCC[C@@H]21 , state its recorded Bacterial Biotransformation.
Compound NOT metabolized

What about this compound? O=C(O)CCC(=O)O.O=C(O[C@H]1CN2CCC1CC2)N1CCc2ccccc2[C@@H]1c1ccccc1 [SOLIFENACIN SUCCINATE]
Compound NOT metabolized

---

experiment: The drug is tested on Blautia luti strain: DSM14534 for biotransformation. The drug concentrations were measured before and after a 12-h incubation by liquid-chromatography-coupled mass spectrometry (LC–MS); type: ADME; parameters: dose 2 uM, timepoint 0 vs 12 hours; details: 2 µM
Assay readout: Bacterial Biotransformation

Here is how some compounds turned out for Bacterial Biotransformation.
1) COCCCC/C(=N\OCCN)c1ccc(C(F)(F)F)cc1.O=C(O)/C=C\C(=O)O [FLUVOXAMINE MALEATE]	Compound NOT metabolized
2) O=C(Nc1ccccc1)OCC(CN1CCCCC1)OC(=O)Nc1ccccc1 (stereo not drawn)	Compound NOT metabolized
3) CCCC1O[C@@H]2C[C@H]3[C@@H]4CCC5=CC(=O)C=C[C@]5(C)[C@H]4[C@@H](O)C[C@]3(C)[C@]2(C(=O)CO)O1 (stereo partly drawn) [BUDESONIDE]	Compound NOT metabolized
4) CNC(=C[N+](=O)[O-])NCCSCc1ccc(CN(C)C)o1	Compound metabolized

Given CN1[C@@H]2CC[C@H]1C[C@@H](OC(=O)C(CO)c1ccccc1)C2 (stereo partly drawn) , state its recorded Bacterial Biotransformation.
Compound NOT metabolized
